Measured IC50, listed per entry for reference.
- Test system: MCF7
- ASSAY_NOTES: Cytotoxicity against human MCF7 cells assessed as reduction in cell viability
- Assay type: functional, cell-based
Entry rule: numbers only, all in µM.

CO[C@H]1CC(=O)[C@@H]2C[C@@]34SS[C@]5(C[C@@H]6C(=O)C=C[C@H](O)[C@H]6N5C3=O)C(=O)N4[C@@H]2[C@H]1O    5.5
O=C1C=C[C@H](O)[C@@H]2[C@@H]1C[C@@]13SS[C@]4(C[C@H]5[C@@H]([C@@H](O)C=C[C@@H]5O)N4C1=O)C(=O)N23    3

INPUT: Bench note: what IC50 did O=C1C=C[C@H](O)[C@@H]2[C@@H]1C[C@@]13SS[C@]4(C[C@H]5C(=O)CC[C@H](O)[C@H]5N4C1=O)C(=O)N23 show?
OUTPUT: 6.1

INPUT: Form field: reported IC50 of O=C1N2[C@H]3[C@H](C[C@]24SS[C@]12C[C@H]1[C@@H]([C@@H](O)C=C[C@@H]1O)N2C4=O)[C@@H](O)C=C[C@@H]3O
OUTPUT: 9

INPUT: Which value of IC50 has been reported for CC(=O)O[C@H]1C(=O)[C@@]2(C)[C@H]([C@H](OC(=O)c3ccccc3)[C@]3(O)C[C@H](OC(=O)[C@H](O)[C@@H](NC(=O)c4ccccc4)c4ccccc4)C(C)=C1C3(C)C)[C@]1(OC(C)=O)CO[C@@H]1C[C@@H]2O [PACLITAXEL] in the records?
OUTPUT: 1.8

====

Reported pIC50 values for the following compounds.
- Test system: HepG2
- ASSAY_NOTES: Cytotoxicity against human HepG2 cells assessed as reduction in cell viability
- Assay type: functional, cell-based
Friendly reminder that pIC50 comes from taking -log10 of the concentration in mol/L.

O=C1C=C[C@H](O)[C@@H]2[C@@H]1C[C@@]13SS[C@]4(C[C@H]5C(=O)CC[C@H](O)[C@H]5N4C1=O)C(=O)N23    5.26
CO[C@H]1CC(=O)[C@@H]2C[C@@]34SS[C@]5(C[C@@H]6C(=O)C=C[C@H](O)[C@H]6N5C3=O)C(=O)N4[C@@H]2[C@H]1O    5.19
O=C1N2[C@H]3[C@H](C[C@]24SS[C@]12C[C@H]1[C@@H]([C@@H](O)C=C[C@@H]1O)N2C4=O)[C@@H](O)C=C[C@@H]3O    5.25

Turning to the following compound.
INPUT: Requested field: pIC50. Item: O=C1C=C[C@H](O)[C@@H]2[C@@H]1C[C@@]13SS[C@]4(C[C@H]5[C@@H]([C@@H](O)C=C[C@@H]5O)N4C1=O)C(=O)N23
OUTPUT: 5.54

====

- Tested on: DU-145
- ASSAY_NOTES: Cytotoxicity against human DU145 cells assessed as reduction in cell viability
- Type: functional, cell-based
Here, each record is paired with measured pIC50 data.
Conceptually, pIC50 converts a concentration in mol/L into minus its log10.

Some molecules with recorded pIC50:
CO[C@H]1CC(=O)[C@@H]2C[C@@]34SS[C@]5(C[C@@H]6C(=O)C=C[C@H](O)[C@H]6N5C3=O)C(=O)N4[C@@H]2[C@H]1O    5.38
O=C1C=C[C@H](O)[C@@H]2[C@@H]1C[C@@]13SS[C@]4(C[C@H]5[C@@H]([C@@H](O)C=C[C@@H]5O)N4C1=O)C(=O)N23    5.77
CC(=O)O[C@H]1C(=O)[C@@]2(C)[C@H]([C@H](OC(=O)c3ccccc3)[C@]3(O)C[C@H](OC(=O)[C@H](O)[C@@H](NC(=O)c4ccccc4)c4ccccc4)C(C)=C1C3(C)C)[C@]1(OC(C)=O)CO[C@@H]1C[C@@H]2O    5.82
O=C1N2[C@H]3[C@H](C[C@]24SS[C@]12C[C@H]1[C@@H]([C@@H](O)C=C[C@@H]1O)N2C4=O)[C@@H](O)C=C[C@@H]3O    4.95

With those in mind, consider the next molecule.
INPUT: I'd like to know its pIC50. The molecule in question is O=C1C=C[C@H](O)[C@@H]2[C@@H]1C[C@@]13SS[C@]4(C[C@H]5C(=O)CC[C@H](O)[C@H]5N4C1=O)C(=O)N23
OUTPUT: 5.44

====

- Tested on: SW480
- ASSAY_NOTES: Cytotoxicity against human SW480 cells assessed as reduction in cell viability
- Assay type: functional, cell-based
PROPERTY_MEASURED: pIC50
Please treat pIC50 as minus the base-10 logarithm of the molar concentration.

CO[C@H]1CC(=O)[C@@H]2C[C@@]34SS[C@]5(C[C@@H]6C(=O)C=C[C@H](O)[C@H]6N5C3=O)C(=O)N4[C@@H]2[C@H]1O    5.70

Here is the next item to consider.
INPUT: Look up pIC50 for this compound: O=C1C=C[C@H](O)[C@@H]2[C@@H]1C[C@@]13SS[C@]4(C[C@H]5C(=O)CC[C@H](O)[C@H]5N4C1=O)C(=O)N23
OUTPUT: 5.92
